Test: NCI Yeast Anticancer Drug Screen. Data for the mlh1 rad18 strain (AID 175)
Conditions: S. cerevisiae mlh1 rad18 strain growth inhibition; at 5.0 µM (retest, dose inferred, filed as 0.5)
This is part of a sample that, as a whole, favours compounds with a hit. Of some 79,000 tested, about 15% had one in any assay. Active and inactive are the calls of the source. Cut-off read from the data, not from the text of the source: active = growth inhibition above about 70%; inactive = the rest.
Possible outcomes: active, inactive

> print(dat)
                                    molecule  class.name
 1          Nc1nc(SCc2ccccc2)c2ncn(CCCl)c2n1    inactive
 2  CN(C)CCOC1(CC2CCCCC2)CCC(C(C)(C)C)CC1 (stereo not drawn)    inactive
 3  O=C(N/C(=C\c1ccc(Cl)cc1)c1nc2ccccc2s1)c1ccccc1    inactive
 4  O=C1CCC(Cc2ccc(Br)cc2)C(=O)N1 (stereo not drawn)    inactive
 5  c1cc(Nc2ccc(Nc3ccc(CN4CCCCC4)cc3)cc2)ccc1CN1CCCCC1    inactive
 6  Cc1cc(C(O)(c2cc(C)c(O)c(C(=O)O)c2)c2cc(C)c(O)c(C(=O)O)c2)cc(C(=O)O)c1O    inactive
 7  CC(=O)Nc1ccc2c(c1)C(=Nc1ccc(F)cc1)c1ccccc1-2    inactive
 8                   Cc1cc2c(cc1C)C(=O)OC2=O    inactive
 9  c1ccc([P+](C[P+](c2ccccc2)(c2ccccc2)c2ccccc2)(c2ccccc2)c2ccccc2)cc1      active
10                   Cn1cnc([N+](=O)[O-])c1S    inactive
11  Cc1cccc2c1CC1(C2)Cc2c(C)cccc2C1=O (stereo not drawn)    inactive
12  CC1COC(c2cn[nH]c2C(N)=O)C1O (stereo not drawn)    inactive
13         Cc1nc(Cl)c(C#N)c(C)c1[N+](=O)[O-]    inactive
14                    Cc1cccc(-c2csc(N)n2)c1    inactive
15  CC1(c2ccc(O)cc2)CC(C)(c2ccc(O)cc2)C1 (stereo not drawn)      active
16  COc1cc2c(cc1O)C(O)CCCC2 (stereo not drawn)    inactive
17  CN1C(/C=C/c2ccc(O)c3ncccc23)CCC2CCCC(O)C21 (stereo not drawn)    inactive
18           CN(C)CCN(C)CCC(=O)/C=C/c1ccccc1      active
19       O=C1C(=O)c2cc(Cl)ccc2-c2ccc(Cl)cc21    inactive
20            O=C(O)c1ccc(OCc2ccccc2)c(Cl)c1    inactive
21  COc1cc(C(=O)[O][Sn]([c]2ccccc2)([c]2ccccc2)[c]2ccccc2)cc(OC)c1OC      active
22  COC(=O)/C(=C/c1ccc(/C=C(/C(=O)O)c2ccc(OC)cc2)o1)c1ccccc1    inactive
23             CSC(=S)NN=C(c1ccccn1)c1ccccn1      active
24                             CCCCCCCCCCCCS    inactive
25  CCCCCCCCN(CCCCCCCC)CC(O)c1cc(-c2ccc(Cl)cc2)nc2c(Cl)cccc12 (stereo not drawn)    inactive
26  CC(CC=NCCN=CCC(C)CC(C)(C)C)CC(C)(C)C (stereo not drawn)    inactive
27            CCCC/C=C(/CCCNCCCC)[Si](C)(C)C      active
28  COc1cc2c(c(OC)c1OC)-c1ccc(SC)c(=O)cc1[C@@H](NC(=O)Oc1ccccc1)CC2    inactive
29    COc1ccc2c(c1)C(O)=C(CC=C(C)C)C(=O)C2=O    inactive
30  C=C1C(=O)OC2CC3(C)CC(O)C(O)C(=C)C3CC12 (stereo not drawn)    inactive
31  CN(C)c1ccc2c(NCCCCCCNc3ccnc4cc(N(C)C)ccc34)ccnc2c1    inactive
32             CC1=C(C)C(=O)C2=C(OCCCO2)C1=O    inactive
33       c1ccc(CN(CCCOc2ccccc2)Cc2ccccc2)cc1    inactive
34  N#Cc1cccc(C[P+](c2ccccc2)(c2ccccc2)c2ccccc2)c1    inactive
35  CN1CCN(CCn2c3c4ccccc4ccc3c3oc(=O)c4ccccc4c32)CC1    inactive
36                   CCOc1ccc2nc(C)cc(C)c2c1    inactive
37  N=C(N)Cc1ccc(NC(=O)c2ccc(C(=O)Nc3ccc(CC(=N)N)cc3)cc2)cc1    inactive
38          Oc1cc(Cc2ccccc2)c(Cc2ccccc2)cc1O    inactive
39  Nc1ccc(S(=O)(=O)Nc2nc3ccccc3nc2N2CCCCC2)cc1    inactive
40  O=C(O)C1C(Br)(c2ccccc2)C1(Br)c1ccccc1 (stereo not drawn)    inactive
41  CC12CCC(O)CC1CCC1C2CCC2(C)C(NC(=O)N(CCCl)N=O)CCC12 (stereo not drawn)    inactive
42         Cc1ccc2c(-c3ccccc3)c3ccccc3cc2c1C    inactive
43                   CCCCCCCCCCCCSC(=NCC)NCC      active

These entries and their values trace back to PubChem BioAssay (NCI).
